# Measured On: electric eel (Electrophorus electricus) AChE (Electrophorus electricus)
# Sequence (O42275 24-633): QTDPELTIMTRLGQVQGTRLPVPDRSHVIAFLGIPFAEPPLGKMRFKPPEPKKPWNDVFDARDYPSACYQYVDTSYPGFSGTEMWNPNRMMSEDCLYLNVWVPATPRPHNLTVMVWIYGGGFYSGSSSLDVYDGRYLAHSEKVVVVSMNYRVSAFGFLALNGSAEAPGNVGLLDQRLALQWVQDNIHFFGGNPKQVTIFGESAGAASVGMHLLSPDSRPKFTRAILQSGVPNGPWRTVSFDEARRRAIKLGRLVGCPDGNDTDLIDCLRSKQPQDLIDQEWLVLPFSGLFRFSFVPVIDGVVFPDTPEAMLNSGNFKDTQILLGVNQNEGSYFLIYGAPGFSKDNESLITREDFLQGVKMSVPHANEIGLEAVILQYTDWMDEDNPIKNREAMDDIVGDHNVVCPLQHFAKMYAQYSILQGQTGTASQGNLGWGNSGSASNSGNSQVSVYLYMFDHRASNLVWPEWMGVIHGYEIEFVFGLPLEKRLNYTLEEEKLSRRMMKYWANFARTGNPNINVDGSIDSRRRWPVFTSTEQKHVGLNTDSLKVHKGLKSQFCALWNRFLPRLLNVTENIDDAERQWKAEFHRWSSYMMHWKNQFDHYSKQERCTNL
# Test Method Notes: Acetylcholinesterase
# Assay type: biochemical
# Applied Conditions: read-out: AChE inhibitory activity
Quick list: inhibition at 4 µg/mL per entry.
The response must be a number in % with no trailing unit.

// worked examples, inhibition at 4 µg/mL included
{"columns": ["Substance Smiles", "inhibition at 4 µg/mL (%)"],
 "data": [
  ["Cc1nc2ccccc2c(=O)n1CC(=O)Nc1ccc([N+](=O)[O-])cc1", 2.5],
  ["Cc1nc2ccccc2c(=O)n1CC(=O)Nc1cccc(Cl)c1", 15.4]
]}

## Input Any idea what inhibition at 4 µg/mL was measured for Cc1ccc(NC(=O)Cn2c(C)nc3ccccc3c2=O)cc1 ?
## Output 17.6

## Input Any idea what inhibition at 4 µg/mL was measured for Cc1nc2ccccc2c(=O)n1CC(=O)Nc1ccc(Cl)cc1 ?
## Output 18.1

## Input Any idea what inhibition at 4 µg/mL was measured for Cc1nc2ccccc2c(=O)n1CC(=O)Nc1ccc(Br)cc1 ?
## Output 3.75

## Input Any idea what inhibition at 4 µg/mL was measured for Cc1nc2ccccc2c(=O)n1CC(=O)Nc1ccccc1Cl ?
## Output 7.58

## Input Any idea what inhibition at 4 µg/mL was measured for Cc1ccccc1NC(=O)Cn1c(C)nc2ccccc2c1=O ?
## Output -1.33
